Source: patent US10745401B2

tested.system: human 5-HT1A receptor (Homo sapiens (Human), UniProt P08908)
Sequence (P08908 whole entry): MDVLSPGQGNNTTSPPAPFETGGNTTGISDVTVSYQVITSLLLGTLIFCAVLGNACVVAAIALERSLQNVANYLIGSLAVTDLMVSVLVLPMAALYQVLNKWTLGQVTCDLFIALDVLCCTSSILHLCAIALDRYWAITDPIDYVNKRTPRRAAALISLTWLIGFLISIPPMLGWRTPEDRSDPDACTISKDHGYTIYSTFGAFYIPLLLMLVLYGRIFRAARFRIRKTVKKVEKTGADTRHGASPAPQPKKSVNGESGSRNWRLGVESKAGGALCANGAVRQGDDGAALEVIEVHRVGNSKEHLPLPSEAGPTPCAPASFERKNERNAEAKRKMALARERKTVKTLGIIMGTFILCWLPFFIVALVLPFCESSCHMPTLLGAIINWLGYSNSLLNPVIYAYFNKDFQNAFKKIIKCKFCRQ
assay.procedure: Test 2: agonist activity for human 5-HT1A receptor ([35S]GTPγS binding)
Assay type: biochemical
assay.setup: agonist activity in the presence of 10 μM of compound, relative to 100 μmol/L 5-HT
Method: Test 2: Evaluation of Agonist Activity for Human 5-HT1A Receptor CHO cell membrane fraction in which human 5-HT1A receptor was expressed as used in Test 1 was purchased. To a buffer containing guanosine diphosphate were added a test compound dissolved in DMSO, each receptor membrane sample diluted with buffer, and [^35S] […] Radioactivity remaining on the […] was measured with a liquid scintillation counter. Agonist activity was calculated from the following formula.
quantity.measured: Emax at 10 µM (%)
Expressed in %, but write only the number.

compound	tested.system	readout.unit	Emax at 10 µM
CCc1cc2c(cn1)C(=O)N(CCN1CCN(c3nsc4ccccc34)CC1)CC2	human 5-HT1A receptor (Homo sapiens (Human), UniProt P08908)	%	64
COc1ncc2c(n1)CCN(CCN1CCC(c3noc4ccccc34)CC1)C2=O	human 5-HT1A receptor (Homo sapiens (Human), UniProt P08908)	%	40
CC1(C)CN(CCN2CCC(c3noc4cc(F)ccc34)CC2)C(=O)c2ncccc21	human 5-HT1A receptor (Homo sapiens (Human), UniProt P08908)	%	35
Cc1nc2c(o1)CCCN(CCN1CCN(c3nsc4ccccc34)CC1)C2=O	human 5-HT1A receptor (Homo sapiens (Human), UniProt P08908)	%	77
Cn1cc2c(n1)CCCN(CCN1CCC(c3noc4ccccc34)CC1)C2=O	human 5-HT1A receptor (Homo sapiens (Human), UniProt P08908)	%	45
Cn1nc2c(c1Br)C(=O)N(CCN1CCC(c3noc4ccccc34)CC1)CC2	human 5-HT1A receptor (Homo sapiens (Human), UniProt P08908)	%	51

[ask] Requested field: Emax at 10 µM. Item: Cn1ncc2c1CCC(CCN1CCN(c3nsc4ccccc34)CC1)C2=O (stereo not drawn)
[reply] 42

[ask] Requested field: Emax at 10 µM. Item: `O=C1c2sccc2CCN1CCN1CCC(c2noc3ccccc23)CC1`
[reply] 60

[ask] Requested field: Emax at 10 µM. Item: `Cn1ncc2c1CCCN(CCN1CCC(c3noc4ccccc34)CC1)C2=O`
[reply] 73

---

tested.system: human D2 receptor (Homo sapiens (Human), UniProt P14416)
Sequence (P14416 whole entry): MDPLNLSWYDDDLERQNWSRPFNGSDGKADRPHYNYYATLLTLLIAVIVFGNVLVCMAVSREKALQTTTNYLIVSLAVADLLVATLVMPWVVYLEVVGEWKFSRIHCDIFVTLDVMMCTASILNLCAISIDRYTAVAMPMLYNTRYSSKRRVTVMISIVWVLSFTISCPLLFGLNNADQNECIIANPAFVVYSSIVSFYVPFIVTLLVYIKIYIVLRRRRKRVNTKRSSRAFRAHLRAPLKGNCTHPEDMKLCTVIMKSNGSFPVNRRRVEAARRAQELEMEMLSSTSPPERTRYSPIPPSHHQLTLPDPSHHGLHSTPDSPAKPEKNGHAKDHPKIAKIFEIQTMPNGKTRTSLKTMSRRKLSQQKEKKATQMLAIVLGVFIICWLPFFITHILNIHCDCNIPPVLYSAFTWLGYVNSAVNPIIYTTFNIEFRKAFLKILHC
assay.procedure: Test 1: binding activity for human D2 receptor ([3H]Spiperone, CHO cell membrane fraction)
assay.setup: human D2 receptor, [3H]Spiperone
Method: Test 1: Evaluation of Binding Activity for Human 5-HT1A Receptor, Human 5-HT2A Receptor, and Human D2 Receptor Binding affinity of the present compound for human 5-HT1A receptor, human 5-HT2A receptor, and human D2 receptor was measured by the following procedures. Each mixture was incubated at room temperature for 60 minutes. […] Radioactivity remaining on the filter was measured with a liquid scintillation counter (PerkinElmer, Inc.). Binding inhibition rate was calculated from the following formula. […]
Exam item: assign TRUE to entries whose Ki is below 0.9 µM and FALSE to entries at or above 0.9 µM. Note that a value of exactly 0.9 µM receives FALSE.

Before answering, review these 8 worked examples.
compound	group
Cc1ncc2c(=O)n(CCN3CCN(c4noc5ccccc45)CC3)ccc2n1 [Example 193]	FALSE
Cc1nc2c(o1)CCN(CCN1CCN(c3nsc4ccccc34)CC1)C2=O [Example 51]	FALSE
Cn1cc2c(n1)C(=O)N(CCN1CCN(c3nsc4ccccc34)CC1)CC2 [Example 50]	TRUE
Cc1cccc2c(C3CCN(CCN4CCc5cccnc5C4=O)CC3)noc12 [Example 120]	FALSE
O=c1c2cnc(C(F)(F)F)cc2ccn1CCN1CCN(c2noc3ccccc23)CC1 [Example 173]	FALSE
O=C1c2cncnc2CCN1CCN1CCN(c2nsc3ccccc23)CC1 [Example 58]	TRUE
O=C1c2oc(C3CC3)nc2CCN1CCN1CCC(c2noc3ccccc23)CC1 [Example 68]	TRUE
CC1CN(CCN2CCC(c3noc4ccccc34)CC2)C(=O)c2ncccc21 (stereo not drawn) [Example 15]	FALSE

Now for a further compound.
[ask] Confirm or reject: Ki of CC(CN1CCC(c2noc3cc(F)ccc23)CC1)N1CCc2cccnc2C1=O (stereo not drawn) [Example 122] lies strictly below 0.9 µM
[reply] TRUE
